assay: CC50 assay in the anti-HCV replicon assay (CellTiter-Glo); format: cell-based, human; settings: human, Huh-7 hepatoma cells harbouring an HCV replicon; Huh-7 HCV replicon cells, 3 days incubation, CellTiter-Glo luminescence

Smiles Representation | CC50 at 3 days
Nc1nc(OCC2CCC2)c2cc(-c3cc4ccccc4o3)ccc2n1 | 10 to 20 µM
COCCOc1nc(N)nc2ccc(-c3ccc(O)cc3)cc12 | 10 to 20 µM
CCOc1nc(N)nc2ccc(-c3cccc(O)c3)cc12 | 10 to 20 µM
N#CC1(NC(=O)c2ccc(-c3ccc4nc(N)nc(O[C@@H]5CCOC5)c4c3)cc2)CC1 | > 20 µM
CC(C)(CN1CCOCC1)NC(=O)c1ccc(-c2ccc3nc(N)nc(O[C@@H]4CCOC4)c3c2)cc1 | > 20 µM
CCOc1nc(N)nc2ccc(-c3ccco3)cc12 | > 20 µM
COCCOc1nc(N)nc2ccc(-c3ccc(C)cc3)cc12 | > 20 µM
CCOc1nc(N)nc2ccc(-c3ccc(C(=O)NC)c(Cl)c3)cc12 | > 20 µM
Nc1nc(OCc2ccccc2)c2cc(-c3cn[nH]c3)ccc2n1 | > 20 µM
CC(=O)Nc1ccc(-c2ccc3nc(N)nc(OCCN4CCOCC4)c3c2)cc1 | > 20 µM
CC(C)Oc1nc(N)nc2ccc(-c3ccc(C(=O)NC4CC4)cc3)cc12 | < 10 µM
CN(C)CCCOc1nc(N)nc2ccc(-c3cc4ccccc4o3)cc12 | > 20 µM
CC(C)Oc1nc(N)nc2ccc(-c3ccc(C(=O)NC(C)(C)C)cc3)cc12 | 10 to 20 µM
CCOc1nc(N)nc2ccc(-c3ccc(C)cc3)cc12 | > 20 µM
CC(C)Oc1nc(N)nc2ccc(-c3ccc(C(=O)N4CCOCC4)cc3)cc12 | > 20 µM
CC(C)Oc1nc(N)nc2ccc(-c3cccc(C#N)c3)cc12 | 10 to 20 µM
CC(C)Oc1nc(N)nc2ccc(-c3ccc(N)cc3)cc12 | > 20 µM
CCOc1nc(N)nc2ccc(-c3ccc(F)c(F)c3F)cc12 | 10 to 20 µM
